Tested on: MDA-MB-435
test_method_notes: NCI tumour cell line growth inhibition, 48 h
Active and inactive are the calls of the source. Cut-off read from the data, not from the text of the source: active = GI50 up to about 1.1 µM and inactive = higher. *1 amine or outer side, *2 acyl side, *3 side chain or, on linkers, in order; H or OH if unused. Where a SMILES comes first, the peptide text is derived from it. Bridges are numbered along the chain shown (N, C = ends). [ ]: non-standard residue; d: D form. X36 = CC[C@H](C)[C@@H](N[*:1])[C@@H](O)CC(=O)O[C@H](C(=O)[C@H](C)C(=O)[*:2])C(C)C; NMeY = CN[C@@H](Cc1ccc(O)cc1)C(=O)O
Outcome codes: true for active, false for inactive

C=CCN1C[C@H](C)N([C@H](c2ccc(C(=O)N(CC)CCO)cc2)c2cccc(OC)c2)C[C@H]1C ... false
CC[C@H](C)[C@H]1NC(=O)[C@@H](N)[C@@H](C)OC(=O)[C@H](Cc2ccc(OC)cc2)N(C)C(=O)[C@@H]2CCCN2C(=O)[C@H](CC(C)C)NC(=O)[C@@H](C)C(=O)[C@H](C(C)C)OC(=O)C[C@@H]1O (H-T[X36]LP[NMeY](Me); ester 1-C) ... false
CN1N=C(c2ccncc2)OC1c1ccc(Cl)c(Cl)c1 (centres undefined) ... false
CC(C)(O)CCc1ccc(O)c2c(=O)c3c(O)c4c(cc3oc12)O[C@H]1OC=C[C@@]41O [AUSTOCYSTIN D] ... true
CCOC(=O)c1nc2ccc(C(F)(F)F)cc2nc1Nc1ccc(OC)cc1 ... false
COc1ccc(/C(Cl)=C(\C=O)c2cc(OC)c(OC)c(OC)c2)cc1OC ... false
COc1ccc2c(c1)OCC1Cc3cccc(OC)c3OC21 (centres undefined) ... false
Cc1cn(C2CC(O)C(Cn3cc(Cn4nc(Br)c(=O)[nH]c4=O)nn3)O2)c(=O)[nH]c1=O (centres undefined) ... false
CCOC(=O)c1cc2c(OC(C)=O)ccc(OC(C)=O)c2s1 ... false
NS(=O)(=O)c1ccc(NC(=O)Nc2ccccc2F)cc1 ... false
O=C1/C(=C/c2c(Cl)[nH]c3ccccc23)c2ccccc2N1c1ccccc1 ... false
CCC/N=C/c1c(O)c(O)c(C(C)C)c2cc(C)c(-c3c(C)cc4c(C(C)C)c(O)c(O)c(/C=N/CCC)c4c3O)c(O)c12 ... false
COc1ccc(-n2sc3ncc(-c4ccccc4)cc3c2=O)cc1 ... false
CCOC(=O)/C=C(/N=P(c1ccccc1)(c1ccccc1)c1ccccc1)C(F)(F)F ... false
CC(C)(/N=N/C(C)(C)C1=NCCN1)C1=NCCN1 ... false
C=C1c2nc3ccccc3n2C=C(c2ccc(Cl)cc2)N1c1ccc(OCCN2CCOCC2)cc1 ... false
CC(=O)Nc1nnc(S(=O)(=O)NC(=S)Nc2ccc(Cl)cc2)s1 ... false
CCOC(=O)Nc1nc(-c2ccccc2)c(C)s1 ... false
Cc1cc(NCCCCCCCCCC[n+]2c(C)cc(N)c3ccccc32)c2ccccc2n1 ... true
